- Test system: methionyl-tRNA synthetase (Trypanosoma brucei brucei)
- test.summary: T. brucei MetRS inhibitors, confirmation, biochemical, luminescence (AID 624412)
- details: T. brucei MetRS enzyme, luminescence (ATP depletion); at 11.9 µM; hits give high values
In all, about 1,400 compounds went through this assay and about 1,300 (93%) were called active. The set was probably picked from earlier hits. These entries were drawn from the full list.

compound: COc1ccc(-c2[nH]ncc2/C=N/NC(=O)c2cc(Br)ccc2O)c(OC)c1
inhibition (%): 12.1
--
compound: NC1=NC(=O)S/C1=C\c1ccc(O)cc1
inhibition (%): 40.1
--
compound: Oc1[nH]c2ccc(Br)cc2c1N=Nc1nn[nH]n1
inhibition (%): 14.6
--
compound: OC(c1cc(Cl)cc(Cl)c1)c1ncc(-c2ccccc2C(F)(F)F)[nH]1 (stereo not drawn)
inhibition (%): 91.3
--
compound: CCCCN(C)Cc1c(C)[nH]c2ccc(Cl)cc2c1=O
inhibition (%): 67.1
--
compound: c1ccc2cc3[nH]c(CN4CCCCC4)nc3cc2c1
inhibition (%): 18.2
--
compound: Cc1ccc(-c2cnc(C(O)c3cc(Cl)cc(Cl)c3)[nH]2)cc1 (stereo not drawn)
inhibition (%): 63.9
--
compound: O=C(NCCN1CCOCC1)c1ccccc1N1C(=O)[C@@H]2Cc3c([nH]c4ccccc34)C(c3cccc(Cl)c3)N2C1=O (stereo partly drawn)
inhibition (%): 18.1

###

- Test system: methionyl-tRNA synthetase (Trypanosoma brucei brucei)
- test.summary: T. brucei MetRS inhibitors, confirmation, biochemical, luminescence (AID 624412)
- details: T. brucei MetRS enzyme, luminescence (ATP depletion); at 11.9 µM; hits give high values
Hit rate of the full screen: of about 1,400 compounds, about 1,300 (93%) were called active. The set was probably picked from earlier hits. Not all results are given here.
Response key: rule met means inhibition >= 10%; rule not met means inhibition < 10%.

molecule: O=C(Cc1ccc(S(=O)(=O)N2CCOCC2)s1)Nc1ccc(Br)c(C(F)(F)F)c1
assigned.label: rule met

molecule: CC(=N\NC(=O)c1cc(Br)ccc1O)/C(=N/O)C(=O)Nc1ccccc1
assigned.label: rule met

molecule: Cc1cc(C)cc(NC(=O)N(C)Cc2ccccc2)c1
assigned.label: rule not met

molecule: O=C(CSc1nc2ccccc2[nH]1)N/N=C/C=C\c1ccccc1[N+](=O)[O-]
assigned.label: rule met

molecule: O=C(Cn1c(NCCO)nc2ccccc21)c1ccc(Cl)cc1Cl
assigned.label: rule not met

molecule: O=[N+]([O-])c1ccc(N2CCN(c3ccc(O)cc3)CC2)c(Cl)c1
assigned.label: rule met

molecule: COc1ccc(CCn2ccc(O)c(Cc3ccc(Cl)cc3Cl)c2=O)cc1OC
assigned.label: rule met

molecule: CN(C(=O)CSc1nnc(Nc2ccccc2)s1)C1CCS(=O)(=O)C1 (stereo unspecified)
assigned.label: rule met

molecule: Cn1c(CCCOc2ccc(Cl)cc2Cl)n[nH]c1=S
assigned.label: rule met

molecule: O=C(Nc1ccccc1)Nc1nnc(COc2ccccc2F)s1
assigned.label: rule met

molecule: CCCCN1C[C@H](c2ccc(Br)cc2)[C@@H](CC(=O)Nc2ccc(Br)cc2)C1=O
assigned.label: rule met

Sourced from PubChem BioAssay AID624412
